target-system: human Claudin18.2 (human)
assay-summary: cell-based or functional assay
recorded-metric: CDC % Relative activity (%)
Form entry: value (%) — number only.

Give its CDC % Relative activity value. Item: 426D9F6 (antibody, V domains shown) VH: DVQLVESGGGLVQPGGSRKLSCAASGFTFSGFGMHWIRQTPEKGLEWVAYISSGSRPIYYADTVKGRFTISRDNPKNTLFLQMTSLRSEDTAMYFCARFYYGNSFDHWGQGTLVTVSA VL: DIVMTQSPSFLTVTAGEKVTMSCKSSQSLLNSGNQRNYLTWYQQKPGQPPKLLIYWASTRESGVPDRFTGSGSGTDFTLTVSSVQAEDLALYYCQNAYSFPLTFGAGTKLELK
32.4

Item under review: 419A5F3 (antibody, V domains shown) VH: DVQLVESGGGLVQPGGSRKLSCAASGFTFSGFGMHWIRQTPEKGLEWVAYISSDSRPIYYADTVKGRFTISRDNPKNTLFLQMTSLRSEDTAMYFCGRFYYGNSFDHWGQGTLVTVSA VL: DIVMTQSPSFLTVTAGEKVTLSCRSSQSLLNSGNQRNYLTWYQQKPGQPPKLLIYWASTRESGVPDRFTGSGSGTDFTLTISSVQAEDRALYYCQNAYSFPLTFGTGTKLELR . Reported CDC % Relative activity?
61.7

Looking for the measured CDC % Relative activity of 181C7B2 (antibody, V domains shown) VH: QVQLKQSGPGLVQPSQSLSITCTVSGFSLTYYGVHWVRQSPGKGLEWLGVIWRGGNTDYNAAFISRLSINKDNSKSQVFFKMNSLQPNDTAIYYCARAAYYGNCFDYWGQGTTLTVSS VL: DIVMTQSPSSLTVTAGEKVTMSCKSSQSLLNSGNQKNYLTWYQQKPGQPPKLLIYWASTRESGVPDRFTGSGSGTDFTLTISSVQAEDLAVYYCQNNYIYPLTFGAGTKLELK , can you help?
44
